test system: Escherichia coli TOP10; experiment: shrunken log2 fold change of peptide-encoding DNA abundance (4.5 h post-induction vs induction); higher = less antimicrobial activity (less host growth inhibition); details: time post-induction: 4.5 h; library: site-saturation at positions 5, 18, 19, 20
Below, each entry is listed alongside its reported shrunken log2 fold change.
observable: shrunken log2 fold change

[[record]]
chain_sequence = "RRIRLRPPRLPRPRPRPDVFPRP"
system_under_test = "Escherichia coli TOP10"
observable = "shrunken log2 fold change"
recorded_measurement = -0.165

[[record]]
chain_sequence = "RRIRCRPPRLPRPRPRPSSEPRP"
system_under_test = "Escherichia coli TOP10"
observable = "shrunken log2 fold change"
recorded_measurement = -0.284

[[record]]
chain_sequence = "RRIRSRPPRLPRPRPRPDVFPRP"
system_under_test = "Escherichia coli TOP10"
observable = "shrunken log2 fold change"
recorded_measurement = -0.098

[[record]]
chain_sequence = "RRIRFRPPRLPRPRPRPYHPPRP"
system_under_test = "Escherichia coli TOP10"
observable = "shrunken log2 fold change"
recorded_measurement = -0.58

[[record]]
chain_sequence = "RRIRKRPPRLPRPRPRPGLGPRP"
system_under_test = "Escherichia coli TOP10"
observable = "shrunken log2 fold change"
recorded_measurement = 0.406

[[record]]
chain_sequence = "RRIRERPPRLPRPRPRPYWHPRP"
system_under_test = "Escherichia coli TOP10"
observable = "shrunken log2 fold change"
recorded_measurement = -0.168

[[record]]
chain_sequence = "RRIRSRPPRLPRPRPRPRFRPRP"
system_under_test = "Escherichia coli TOP10"
observable = "shrunken log2 fold change"
recorded_measurement = 0.203

[[record]]
chain_sequence = "RRIRSRPPRLPRPRPRPQQNPRP"
system_under_test = "Escherichia coli TOP10"
observable = "shrunken log2 fold change"
recorded_measurement = -0.0687

[[record]]
chain_sequence = "RRIRSRPPRLPRPRPRPGDVPRP"
system_under_test = "Escherichia coli TOP10"
observable = "shrunken log2 fold change"
recorded_measurement = 0.204

[[record]]
chain_sequence = "RRIRYRPPRLPRPRPRPWAIPRP"
system_under_test = "Escherichia coli TOP10"
observable = "shrunken log2 fold change"
recorded_measurement = 0.0155

[[record]]
chain_sequence = "RRIRERPPRLPRPRPRPSWFPRP"
system_under_test = "Escherichia coli TOP10"
observable = "shrunken log2 fold change"
recorded_measurement = -0.589


###

Below, each entry is listed alongside its reported shrunken log2 fold change.
tested on: Escherichia coli TOP10; test: shrunken log2 fold change of peptide-encoding DNA abundance (4.5 h post-induction vs induction); higher = less antimicrobial activity (less host growth inhibition); conditions: time post-induction: 4.5 h; library: site-saturation at positions 5, 18, 19, 20
observable: shrunken log2 fold change

[[record]]
chain_sequence = "RRIRGRPPRLPRPRPRPFGTPRP"
recorded_measurement = 0.196

[[record]]
chain_sequence = "RRIRPRPPRLPRPRPRPEYDPRP"
recorded_measurement = 0.101

[[record]]
chain_sequence = "RRIRKRPPRLPRPRPRPPLCPRP"
recorded_measurement = 0.668

[[record]]
chain_sequence = "RRIRNRPPRLPRPRPRPYWAPRP"
recorded_measurement = -0.0304

[[record]]
chain_sequence = "RRIRDRPPRLPRPRPRPVIGPRP"
recorded_measurement = 0.16

[[record]]
chain_sequence = "RRIRDRPPRLPRPRPRPWHVPRP"
recorded_measurement = 0.015

[[record]]
chain_sequence = "RRIRHRPPRLPRPRPRPQYFPRP"
recorded_measurement = -0.439

[[record]]
chain_sequence = "RRIRKRPPRLPRPRPRPHKYPRP"
recorded_measurement = -0.448

[[record]]
chain_sequence = "RRIRARPPRLPRPRPRPCIAPRP"
recorded_measurement = -0.0146

[[record]]
chain_sequence = "RRIRKRPPRLPRPRPRPDGWPRP"
recorded_measurement = 0.152


###

system: Escherichia coli TOP10; experiment: shrunken log2 fold change of peptide-encoding DNA abundance (4.5 h post-induction vs induction); higher = less antimicrobial activity (less host growth inhibition); settings: time post-induction: 4.5 h; library: site-saturation at positions 5, 18, 19, 20
observable: shrunken log2 fold change

[[record]]
chain_sequence = "RRIRHRPPRLPRPRPRPISKPRP"
recorded_measurement = -0.929

[[record]]
chain_sequence = "RRIRMRPPRLPRPRPRPCEGPRP"
recorded_measurement = -0.00822

[[record]]
chain_sequence = "RRIRARPPRLPRPRPRPGYNPRP"
recorded_measurement = -0.403

[[record]]
chain_sequence = "RRIRLRPPRLPRPRPRPCNGPRP"
recorded_measurement = -0.00674


###

Below, each entry is listed alongside its reported shrunken log2 fold change.
tested on: Escherichia coli TOP10; assay: shrunken log2 fold change of peptide-encoding DNA abundance (4.5 h post-induction vs induction); higher = less antimicrobial activity (less host growth inhibition); conditions: time post-induction: 4.5 h; library: site-saturation at positions 5, 18, 19, 20;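 also: peptides expressed intracellularly from a pBAD plasmid library in pooled LB shake-flask culture, induced with 0.3% L-arabinose, DNA abundance read by NGS, three biological replicates, DESeq2 with apeglm shrinkage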
observable: shrunken log2 fold change

[[record]]
chain_sequence = "RRIRVRPPRLPRPRPRPLGSPRP"
recorded_measurement = -0.115

[[record]]
chain_sequence = "RRIRKRPPRLPRPRPRPGRCPRP"
recorded_measurement = 0.586

[[record]]
chain_sequence = "RRIRMRPPRLPRPRPRPQSNPRP"
recorded_measurement = 0.0557

[[record]]
chain_sequence = "RRIRIRPPRLPRPRPRPHLQPRP"
recorded_measurement = -0.343

[[record]]
chain_sequence = "RRIRPRPPRLPRPRPRPFTYPRP"
recorded_measurement = -0.0519

[[record]]
chain_sequence = "RRIRMRPPRLPRPRPRPTIDPRP"
recorded_measurement = 0.0912

[[record]]
chain_sequence = "RRIRLRPPRLPRPRPRPQVIPRP"
recorded_measurement = -0.136

[[record]]
chain_sequence = "RRIRFRPPRLPRPRPRPTETPRP"
recorded_measurement = -0.0161

[[record]]
chain_sequence = "RRIRLRPPRLPRPRPRPYEIPRP"
recorded_measurement = -0.012

[[record]]
chain_sequence = "RRIRPRPPRLPRPRPRPCVVPRP"
recorded_measurement = 1.73

[[record]]
chain_sequence = "RRIRSRPPRLPRPRPRPIQWPRP"
recorded_measurement = 0.268

[[record]]
chain_sequence = "RRIRWRPPRLPRPRPRPTKTPRP"
recorded_measurement = 0.0481

[[record]]
chain_sequence = "RRIRWRPPRLPRPRPRPYACPRP"
recorded_measurement = -0.355

[[record]]
chain_sequence = "RRIRDRPPRLPRPRPRPQNRPRP"
recorded_measurement = -0.28

[[record]]
chain_sequence = "RRIRARPPRLPRPRPRPTGDPRP"
recorded_measurement = 0.604


The values you see were collected from the supplement of paper PMC9112550.
